result_type: melting point

Item under review: O=C(O)c1cn([C@@H]2C[C@H]2F)c2c(Cl)c(N3C[C@@H]4NCCO[C@@H]4C3)c(F)cc2c1=O (mixture of isomers) . Reported melting point?
160 to 164 °C (dec.)

----------
Listed here: items and their measured MIC.
- Tested on: H. pylori clinical isolate 008
- method_summary: MIC, agar dilution test
- Assay type: cell-based
- condition_set: Helicobacter pylori, Columbia agar or Basis 2 agar with 10% lysed horse blood, 37° C., 48-72 hours, read-out: MIC (mg/l) H. pylori 008
Use mg/L as the unit, but write only the number.

molecule=COc1c(N2C[C@@H]3NCCO[C@@H]3C2)c(F)cc2c(=O)c(C(=O)O)cn(C3CC3)c12.Cl reported_measurement=0.06
molecule="O=C(O)c1cn(C2CC2)c2c(OC(F)F)c(N3CC4NCCOC4C3)c(F)cc2c1=O (stereo not drawn)" reported_measurement=0.06
molecule="N#Cc1c(N2CC3NCCOC3C2)c(F)cc2c(=O)c(C(=O)O)cn(C3CC3)c12 (stereo not drawn)" reported_measurement=0.06
molecule=COc1c(N2C[C@@H]3NCCO[C@H]3C2)c(F)cc2c(=O)c(C(=O)O)cn(C3CC3)c12.Cl reported_measurement=0.125
molecule=CC(CF)(CF)n1cc(C(=O)O)c(=O)c2cc(F)c(N3C[C@@H]4NCCO[C@@H]4C3)cc21 reported_measurement=0.25

// moving on: another record for MIC
Any idea what its MIC is? The molecule is CN1COc2c(N3CC4NCCOC4C3)c(F)cc3c(=O)c(C(=O)O)cn1c23 (stereo not drawn)
0.06
